- Assay Explanation: CCTE_Shafer_MEA_acute_cross_correlation_area: CCTE's Neural Acute Assay for Area of Cross Correlation, Shafer Lab (AID 2284024);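 note: area under pooled inter-electrode spike cross-correlation near zero lag as percent change from own baseline; curves fitted for loss of cross-correlation area so actives lower synchrony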
Calls of active or inactive are those of the source. Rule for the calls: active = hit-call score of the fitted dose curve at least 0.9, where 1 is the maximum; inactive = score below 0.9.
Return exactly one item of active, inactive

These recorded examples may help you get a feel for the data.
Compound: COP(=O)(NC(C)=O)SC (configuration not stated)
Class Assignment: inactive
//
Compound: C[N+]1(C)CCCCC1
Class Assignment: inactive
//
Compound: CCOP(=S)(OCC)Oc1ccc2c(C)c(Cl)c(=O)oc2c1
Class Assignment: inactive
//
Compound: C[Si](Cn1cncn1)(c1ccc(F)cc1)c1ccc(F)cc1
Class Assignment: active

query: What outcome does the record of this test show for `CC(C)[C@H](C(=O)O[C@H](C#N)c1cccc(Oc2ccccc2)c1)c1ccc(Cl)cc1` ?
result: inactive

query: What is the recorded call for this compound in the test? `Cc1ccn2nc(S(=O)(=O)Nc3c(F)cccc3F)nc2n1`
result: inactive

query: Dear all, I need the recorded test outcome for CCOP(=O)(NC(C)C)Oc1ccc(SC)c(C)c1 (configuration not stated) , thank you.
result: inactive

###

- Assay Explanation: BSK_SAg_SRB: Viability Assessment in the BioMAP Diversity Plus: SAg Assay (AID 2283096);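 note: cells read one day after compound addition; hits may be either gain or loss of signal compared with DMSO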
- Cond: primary human HUVEC with PBMC
Calls of active or inactive are those of the source. How the source made its calls: active means hit-call score of the fitted dose curve at least 0.9, where 1 is the maximum; inactive means score below 0.9.
Respond only with the outcome that fits, drawn from true (1) for active, false (0) for inactive

Solved cases (3 shown):
Compound: CCOP(=S)(OCC)OC(Cl)C(Cl)(Cl)Cl (centres undefined)
Class Assignment: true (1)

Compound: S=C1NCCN1
Class Assignment: false (0)

Compound: CCOP(=S)(Oc1cnc(C(C)(C)C)nc1)OC(C)C (centres undefined)
Class Assignment: true (1)

Now for a further compound.
query: // return assay outcome for `CCCOCC(=Nc1ccc(Cl)cc1C(F)(F)F)n1ccnc1`
result: true (1)

###

- Read-out: glucuronosyltransferase (UGT1A1), UGT1A1 (gene 54658)
- Assay Explanation: CLD_UGT1A1_24hr: CellzDirect (CLD) Gene Expression Assay for glucuronosyltransferase (UGT1A1) at 24 hours (AID 2283696)
- Description: CLD_24hr is a cell-based, multiplexed-readout assay that uses hepatocyte, a human liver primary cell, with measurements taken at 24 hours after chemical dosing in a 96-well plate.CLD_UGT1A1_24hr is one of 16 assay component(s) measured or calculated from the CLD_24hr assay. […] Furthermore, this assay endpoint can be referred to as a primary readout. […]
Records with an inconclusive call do not appear. Active and inactive are the calls of the source. The calls were made as follows: active = hit-call score of the fitted dose curve at least 0.9, where 1 is the maximum; inconclusive = response in the unintended direction; inactive = score below 0.9.
Choose the fitting class; nothing outside active, inactive is accepted.

Take a look at these entries with their results.
Molecule: C#CCC1=C(C)C(OC(=O)C2C(C=C(C)C)C2(C)C)CC1=O (configuration not stated)
Class Assignment: inactive
--
Molecule: CNC(=O)Oc1cccc2c1OC(C)(C)O2
Class Assignment: inactive
--
Molecule: CCOP(=S)(OCC)Oc1ccc([N+](=O)[O-])cc1
Class Assignment: inactive
--
Molecule: S=C1NCCN1
Class Assignment: inactive
--
Molecule: CCCSP(=O)(OCC)SCCC
Class Assignment: inactive
--
Molecule: Cc1nn(-c2cc(NS(C)(=O)=O)c(Cl)cc2Cl)c(=O)n1C(F)F
Class Assignment: inactive

query: Hi team, can someone confirm the assay call for `CCOP(=S)(OCC)SCCSCC` ?
result: active
